# ASSAY SYSTEM: HIV-1 envelope Q461_E2 (HIV-1)
# ASSAY TEXT: cell-based or functional assay
The binders listed here are annotated with their IC50, PSV assay.

- BINDER: "bNAb14 (antibody, V domains shown) VH: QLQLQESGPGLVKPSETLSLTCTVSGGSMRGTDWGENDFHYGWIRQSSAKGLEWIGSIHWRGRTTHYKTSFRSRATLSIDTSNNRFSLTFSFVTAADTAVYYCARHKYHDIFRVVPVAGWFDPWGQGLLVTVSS VL: EIVMTQSPPTLSVSPGETATLSCRASQNVKNNLAWYQLKPGQAPRLLIFDASSRAGGIPDRFSGSGYGTDFTLTVNSVQSEDFGDYFCQQYEEWPRTFGQGTKVDIKR"
  IC50, PSV assay: "> 500 nM"
- BINDER: "bNAb16 (antibody, V domains shown) VH: EVQLVESGGGLVKPGGSLRLTCVASGFTFSDVWLNWVRQAPGKGLEWVGRIKSRTDGGTTDYAASVKGRFTISRDDSKNTLYLQMNSLKTEDTAVYSCTTDGFIMIRGVSEDYYYYYMDVWGKGTTVTVSS VL: QSVLTQPPSVSAAPGQKVTISCSGSSSNIGNNYVLWYQQFPGTAPKLLIYGNNKRPSGIPDRFSGSKSGTSATLGITGLQTGDEADYFCATWDSGLSADWVFGGGTKLTVLG"
  IC50, PSV assay: "> 500 nM"
- BINDER: "bNAb19 (antibody, V domains shown) VH: EVQLVESGGGLVKAGGSLILSCGVSNFRISAHTMNWVRRVPGGGLEWVASISTSSTYRDYADAVKGRFTVSRDDLEDFVYLQMHKMRVEDTAIYYCARKGSDRLSDNDPFDAWGPGTVVTVSP VL: DVVMTQSPSTLSASVGDTITITCRASQSIETWLAWYQQKPGKAPKLLIYKASTLKTGVPSRFSGSGSGTEFTLTISGLQFDDFATYHCQHYAGYSATFGQGTRVEIKR"
  IC50, PSV assay: "> 300 nM"
- BINDER: "bNAb15 (antibody, V domains shown) VH: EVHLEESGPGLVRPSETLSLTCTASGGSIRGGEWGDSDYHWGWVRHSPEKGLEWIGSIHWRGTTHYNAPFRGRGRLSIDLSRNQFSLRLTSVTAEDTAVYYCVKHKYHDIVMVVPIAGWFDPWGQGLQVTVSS VL: EIMMTQSPAILSVSPGDRATLSCRASQSVKNNLAWYQKRPGQAPRLLIFDTSSRASGIPARFSGGGSGTEFTLTVNSMQSEDFATYYCQQYEEWPRTFGQGTKVEIKR"
  IC50, PSV assay: "> 500 nM"
- BINDER: "bNAb23 (antibody, V domains shown) VH: QVQLLESGPGLVRPSETLTLTCSVFNSRVSGYYYSWIRQPPGRGLEWIASTHFSLRPSRNPSLLSRVTTSIDTERYQVFLNMRSVTAADTAVYFCARGDASGWRADYFPHWGQGTLVVVSS VL: QSVLTQPPSASGSPGQSVTISCTGTSSDIGASDYVSWYQQYPGEAPKVIIYDVTKRPSGVPDRFSGSKSGTTASLTVSGLQAEDEADYYCSSDAGRHTLLFGGGTKVTVLG"
  IC50, PSV assay: "> 500 nM"

Consider now this further binder.
Request the reported IC50, PSV assay associated with bNAb18 (antibody, V domains shown) VH: QVQLVQSGAEVRKPGSSVTISCKPVGGTFTNFAIHWVRQAPGQGLEWVGGRVPVVGIYKYGKKFHDRLRLYEDDPMKTVFLELRSLTSDDTGVYYCTRWRGCGMCPYDTSSYYNDASDVWGPGTKVIVSA VL: EIVLTQSPVTLSLSSGETGTLSCRASQNISSSWIAWYQQRRGQVPRLLISAASARAAGIPDRFTGRGSGTDFTLTITRLEPEDFGVYSCQYYGGSFFTFGPGTQVDVKR
> 500 nM
